- testMethodNotes: doxorubicin toxicity protection in MRP-1 cells – H69AR cells, CellTiter-Glo, duplicate, MRP-1 activator project, pilot screen (AID 807);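 further: compound pretreatment 18-22 h then 72 h combined with doxorubicin; 0% = doxorubicin alone and 100% = vehicle without doxorubicin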
- conditionDescription: H69AR viability with doxorubicin, CellTiter-Glo luminescence; at 10 µM; stronger effect = higher value
attributeMeasured: viability increase (%)

# compound, readoutNumber
rows = [
    ("Cc1ccc(-c2nnc3n2N=C(c2ccccc2)CS3)cc1", -0.74),
    ("O=C(CCN1C(=O)c2ccccc2C1=O)NCCN1CCOCC1", 0.61),
    ("COc1ccc(N(C)C(=O)CCS(=O)(=O)c2cccc3nonc23)c(OC)c1", -0.31),
    ("CN1CCN(CC(=O)N2c3ccccc3C(C)(c3ccccc3)CC2(C)C)CC1 (centres undefined)", -6.54),
]
